- Tested on: H. contortus L3 larvae, anthelmintic-susceptible Weybridge isolate
- ASSAY_INFO: Automated larval migration assay
- STATED_CONDITIONS: Haemonchus contortus, read-out: IC50 (L3 migration, ALMA)
Where a name gives a salt, the structure may show the parent alone.
We begin with a simple list: items and their reported IC50.

>  <COMPOUND>
c1ccc([C@H]2CN3CCSC3=N2)cc1 [Levamisole, (−)-tetramisole hydrochloride]

>  <IC50 [µM]>
1.14

$$$$
>  <COMPOUND>
CN1CCC[C@H]1c1cccnc1 [Nicotine, (−)-nicotine hydrogen tartrate]

>  <IC50 [µM]>
611

$$$$
>  <COMPOUND>
CN1CCCN=C1/C=C/c1cccs1 [Pyrantel, pyrantel citrate]

>  <IC50 [µM]>
0.77

$$$$
>  <COMPOUND>
c1cncc([C@@H]2CCCCN2)c1

>  <IC50 [µM]>
179

$$$$

Source: paper PMC6287576
